# credit: the supplement of paper PMC11196671

assay: terephthalic acid (TPA) released, HPLC; higher = more TPA released; extreme values may be limits of the assay; conditions: PET substrate: cryPow; 70 °C; pH 7.5; 24 h
metric: terephthalic acid
Reply with the number and its unit after it.

Item: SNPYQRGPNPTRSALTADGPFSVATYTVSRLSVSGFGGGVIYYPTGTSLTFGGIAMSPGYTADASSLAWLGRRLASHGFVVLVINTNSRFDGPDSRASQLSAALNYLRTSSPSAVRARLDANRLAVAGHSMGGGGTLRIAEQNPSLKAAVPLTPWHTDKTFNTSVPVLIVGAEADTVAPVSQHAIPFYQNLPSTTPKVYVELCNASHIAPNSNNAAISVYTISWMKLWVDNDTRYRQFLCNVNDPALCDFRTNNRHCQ [LCC-ICCG] | terephthalic acid: 0.409 mM

Item: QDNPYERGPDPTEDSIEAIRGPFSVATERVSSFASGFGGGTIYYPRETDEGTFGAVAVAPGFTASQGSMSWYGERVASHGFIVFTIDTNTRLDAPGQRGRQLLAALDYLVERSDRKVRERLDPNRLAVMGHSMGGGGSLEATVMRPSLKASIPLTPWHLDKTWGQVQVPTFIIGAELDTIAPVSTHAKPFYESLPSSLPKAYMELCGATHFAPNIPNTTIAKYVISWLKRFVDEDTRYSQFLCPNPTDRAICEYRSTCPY [Cut190*SS] | terephthalic acid: 0.0546 mM

Item: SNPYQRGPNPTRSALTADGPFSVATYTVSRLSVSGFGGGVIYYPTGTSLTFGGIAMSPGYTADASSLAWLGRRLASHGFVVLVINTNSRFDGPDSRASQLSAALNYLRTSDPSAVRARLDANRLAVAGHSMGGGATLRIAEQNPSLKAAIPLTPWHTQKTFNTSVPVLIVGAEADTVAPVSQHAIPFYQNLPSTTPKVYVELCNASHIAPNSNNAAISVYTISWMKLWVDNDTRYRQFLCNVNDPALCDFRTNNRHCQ [LCC-ICCG DAQI] | terephthalic acid: 0.401 mM

Item: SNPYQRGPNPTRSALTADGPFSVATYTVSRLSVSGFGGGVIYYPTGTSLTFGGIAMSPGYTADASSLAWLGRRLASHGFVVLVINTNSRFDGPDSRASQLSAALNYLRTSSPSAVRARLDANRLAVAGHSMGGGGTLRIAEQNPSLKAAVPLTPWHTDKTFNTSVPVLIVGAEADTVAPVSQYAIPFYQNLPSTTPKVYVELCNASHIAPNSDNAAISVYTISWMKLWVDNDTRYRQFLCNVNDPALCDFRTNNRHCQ [LCC-A2] | terephthalic acid: 0.639 mM

---

test: MHET released, HPLC; higher = more MHET released; extreme values may be limits of the assay; conditions: PET substrate: cryPow; 60 °C; pH 7.5; 24 h
We use 0.5 mM as the dividing line for MHET released: on or above the line is Condition met, below is Condition not met.

Check if MHET released >= 0.5 mM (inclusive). Item: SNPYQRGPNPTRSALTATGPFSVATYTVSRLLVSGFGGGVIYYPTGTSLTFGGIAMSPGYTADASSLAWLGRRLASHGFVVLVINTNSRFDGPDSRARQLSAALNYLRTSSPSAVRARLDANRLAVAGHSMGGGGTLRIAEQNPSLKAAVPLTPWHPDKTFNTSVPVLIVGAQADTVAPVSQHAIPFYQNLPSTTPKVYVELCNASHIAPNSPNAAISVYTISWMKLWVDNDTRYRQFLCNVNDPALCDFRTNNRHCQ [LCC-ICCG I6M]
Condition not met

Check if MHET released >= 0.5 mM (inclusive). Item: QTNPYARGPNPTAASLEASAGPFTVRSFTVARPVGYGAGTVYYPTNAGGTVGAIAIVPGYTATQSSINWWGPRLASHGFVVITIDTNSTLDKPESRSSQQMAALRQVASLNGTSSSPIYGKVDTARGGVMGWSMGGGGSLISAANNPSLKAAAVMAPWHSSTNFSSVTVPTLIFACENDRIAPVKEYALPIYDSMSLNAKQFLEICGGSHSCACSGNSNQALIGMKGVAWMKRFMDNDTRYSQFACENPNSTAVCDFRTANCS [HotPETase]
Condition met

Check if MHET released >= 0.5 mM (inclusive). Item: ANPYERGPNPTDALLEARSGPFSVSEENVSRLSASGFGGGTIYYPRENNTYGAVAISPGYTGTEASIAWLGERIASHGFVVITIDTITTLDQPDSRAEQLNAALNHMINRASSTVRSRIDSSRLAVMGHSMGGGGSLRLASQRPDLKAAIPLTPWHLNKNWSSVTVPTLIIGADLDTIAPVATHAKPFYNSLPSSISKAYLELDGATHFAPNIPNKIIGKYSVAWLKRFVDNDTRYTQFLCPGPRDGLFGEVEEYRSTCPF [TfCut2]
Condition not met

Check if MHET released >= 0.5 mM (inclusive). Item: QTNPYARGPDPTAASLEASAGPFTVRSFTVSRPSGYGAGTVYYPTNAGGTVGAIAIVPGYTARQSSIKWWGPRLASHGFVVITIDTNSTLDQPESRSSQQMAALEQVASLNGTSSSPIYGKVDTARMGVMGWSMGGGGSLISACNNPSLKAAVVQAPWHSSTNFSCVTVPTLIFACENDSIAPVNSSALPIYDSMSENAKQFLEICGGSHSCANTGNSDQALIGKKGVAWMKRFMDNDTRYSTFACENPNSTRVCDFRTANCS [Z1-PETase]
Condition met

Check if MHET released >= 0.5 mM (inclusive). Item: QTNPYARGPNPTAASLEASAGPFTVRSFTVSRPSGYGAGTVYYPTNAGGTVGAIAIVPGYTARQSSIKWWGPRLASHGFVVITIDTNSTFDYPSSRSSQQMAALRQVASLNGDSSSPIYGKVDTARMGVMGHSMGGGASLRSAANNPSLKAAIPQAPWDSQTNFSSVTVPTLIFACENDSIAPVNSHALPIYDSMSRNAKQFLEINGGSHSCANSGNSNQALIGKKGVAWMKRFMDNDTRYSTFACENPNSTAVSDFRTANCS [DuraPETase]
Condition not met

Check if MHET released >= 0.5 mM (inclusive). Item: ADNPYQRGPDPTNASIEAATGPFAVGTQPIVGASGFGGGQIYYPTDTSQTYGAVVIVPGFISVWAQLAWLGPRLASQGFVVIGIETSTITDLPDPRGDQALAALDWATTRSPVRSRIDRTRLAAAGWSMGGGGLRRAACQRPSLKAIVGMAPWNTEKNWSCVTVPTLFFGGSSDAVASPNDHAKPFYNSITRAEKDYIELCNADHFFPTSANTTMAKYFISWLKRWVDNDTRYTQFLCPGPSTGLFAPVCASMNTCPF [CaPETaseM9]
Condition not met

Check if MHET released >= 0.5 mM (inclusive). Item: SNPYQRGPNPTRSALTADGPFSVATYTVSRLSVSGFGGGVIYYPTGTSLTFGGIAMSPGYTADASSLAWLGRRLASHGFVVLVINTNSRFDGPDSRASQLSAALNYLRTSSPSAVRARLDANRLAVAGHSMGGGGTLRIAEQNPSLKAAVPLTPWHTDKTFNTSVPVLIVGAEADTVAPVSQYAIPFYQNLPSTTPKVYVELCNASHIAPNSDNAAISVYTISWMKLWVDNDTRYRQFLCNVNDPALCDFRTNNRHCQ [LCC-A2]
Condition met

Check if MHET released >= 0.5 mM (inclusive). Item: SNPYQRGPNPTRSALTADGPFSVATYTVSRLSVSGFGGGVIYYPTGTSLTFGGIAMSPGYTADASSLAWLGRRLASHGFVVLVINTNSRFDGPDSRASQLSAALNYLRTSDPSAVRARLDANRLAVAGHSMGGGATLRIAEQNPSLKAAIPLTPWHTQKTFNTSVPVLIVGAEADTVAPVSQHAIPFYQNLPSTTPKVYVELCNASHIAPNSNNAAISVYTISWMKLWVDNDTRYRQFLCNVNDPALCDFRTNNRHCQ [LCC-ICCG DAQI]
Condition not met

---

So I've got a bunch of sequences here, and I need their PET hydrolysis product formed values.
assay: PET hydrolysis product formed (TPA+MHET+BHET, UV-Vis) per mg enzyme (mmol/mg enzyme); higher = more PET depolymerisation activity; extreme values may be limits of the assay; conditions: PET substrate: cryPow; 60 °C; pH 7.5; 2 h
Enter a number only.

Item: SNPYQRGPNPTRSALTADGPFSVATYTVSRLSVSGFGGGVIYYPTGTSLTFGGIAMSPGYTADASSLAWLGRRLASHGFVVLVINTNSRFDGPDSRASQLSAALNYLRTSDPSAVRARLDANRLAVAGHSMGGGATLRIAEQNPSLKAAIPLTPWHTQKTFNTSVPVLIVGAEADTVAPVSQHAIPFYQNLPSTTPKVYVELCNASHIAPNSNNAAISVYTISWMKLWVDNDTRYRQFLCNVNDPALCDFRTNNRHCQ [LCC-ICCG DAQI] | PET hydrolysis product formed: 0.0986

Item: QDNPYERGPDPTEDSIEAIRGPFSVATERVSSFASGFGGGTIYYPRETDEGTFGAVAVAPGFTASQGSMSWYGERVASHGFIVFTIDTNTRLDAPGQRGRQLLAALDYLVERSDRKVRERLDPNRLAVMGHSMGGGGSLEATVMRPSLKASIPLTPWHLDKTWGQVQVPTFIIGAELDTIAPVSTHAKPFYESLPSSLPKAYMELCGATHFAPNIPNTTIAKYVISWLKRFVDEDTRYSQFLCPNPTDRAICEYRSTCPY [Cut190*SS] | PET hydrolysis product formed: 0.0258

Item: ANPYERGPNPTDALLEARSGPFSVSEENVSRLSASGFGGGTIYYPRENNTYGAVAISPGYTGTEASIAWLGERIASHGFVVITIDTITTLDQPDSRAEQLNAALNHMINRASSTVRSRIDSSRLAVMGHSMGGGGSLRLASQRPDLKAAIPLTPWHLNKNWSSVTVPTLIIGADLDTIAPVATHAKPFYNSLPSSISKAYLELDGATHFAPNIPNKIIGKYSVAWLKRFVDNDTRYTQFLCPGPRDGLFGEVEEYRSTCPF [TfCut2] | PET hydrolysis product formed: 0

Item: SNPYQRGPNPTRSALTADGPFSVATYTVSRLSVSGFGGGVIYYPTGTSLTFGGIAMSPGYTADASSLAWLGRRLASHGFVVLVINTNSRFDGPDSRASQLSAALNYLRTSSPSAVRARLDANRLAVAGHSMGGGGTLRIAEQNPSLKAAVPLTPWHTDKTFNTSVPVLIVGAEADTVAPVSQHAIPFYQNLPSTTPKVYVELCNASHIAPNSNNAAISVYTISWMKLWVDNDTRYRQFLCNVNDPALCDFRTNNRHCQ [LCC-ICCG] | PET hydrolysis product formed: 0.0768

Item: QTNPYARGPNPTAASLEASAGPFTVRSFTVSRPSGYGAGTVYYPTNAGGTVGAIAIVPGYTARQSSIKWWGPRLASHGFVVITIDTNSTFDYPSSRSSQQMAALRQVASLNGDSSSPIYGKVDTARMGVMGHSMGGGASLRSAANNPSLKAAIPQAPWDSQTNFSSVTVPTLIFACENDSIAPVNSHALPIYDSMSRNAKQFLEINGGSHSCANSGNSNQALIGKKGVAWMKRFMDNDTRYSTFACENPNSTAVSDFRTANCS [DuraPETase] | PET hydrolysis product formed: 0.0496

Item: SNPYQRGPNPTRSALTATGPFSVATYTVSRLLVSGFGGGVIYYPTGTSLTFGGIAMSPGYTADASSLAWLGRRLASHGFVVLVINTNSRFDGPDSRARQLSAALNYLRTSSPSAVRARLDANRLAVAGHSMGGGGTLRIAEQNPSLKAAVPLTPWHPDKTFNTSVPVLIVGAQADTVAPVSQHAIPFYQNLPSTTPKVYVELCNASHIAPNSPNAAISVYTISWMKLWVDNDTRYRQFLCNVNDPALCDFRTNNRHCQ [LCC-ICCG I6M] | PET hydrolysis product formed: 0.035
